Tested on: human red blood cells (hRBC)
Assay: Hemolysis of human red blood cells
Format: cell-based
Details: red cells of human, 1 h, 100
Where a SMILES comes first, the peptide text is derived from it. [ ]: non-standard residue; d: D form. Tle = CC(C)(C)[C@H](N)C(=O)O; dDab = NCC[C@@H](N)C(=O)O; Orn = NCCC[C@H](N)C(=O)O; Dab = NCC[C@H](N)C(=O)O; Dap = NC[C@H](N)C(=O)O
readout kind: Hemolysis at 100 μg/ml (%)

>>> readout_value("CC(C)C[C@@H]1NC(=O)[C@@H]2CCCN2C(=O)[C@H]2CCCN2C(=O)[C@H](CO)NC(=O)[C@H](C)NC(=O)[C@H](Cc2c[nH]c3ccccc23)NC(=O)[C@H](CCN)NC(=O)[C@H](Cc2c[nH]c3ccccc23)NC(=O)[C@H](CCN)NC(=O)[C@@H](CCN)NC(=O)[C@H](CCCCN)NC(=O)[C@H](CCN)NC(=O)[C@H](Cc2ccc(O)cc2)NC(=O)[C@H](CO)NC1=O [compound 108] (cyclo(LSY[Dab]K[dDab][Dab]W[Dab]WAS[dP]P))")
1
>>> readout_value("CC(C)C[C@@H]1NC(=O)[C@@H]2CCCN2C(=O)[C@H]2CCCN2C(=O)[C@H](CO)NC(=O)[C@H](C)NC(=O)[C@H](C(C)(C)C)NC(=O)[C@H](CCN)NC(=O)[C@H](Cc2c[nH]c3ccccc23)NC(=O)[C@H](CCN)NC(=O)[C@@H](CCN)NC(=O)[C@H](CCCN)NC(=O)[C@H](CCN)NC(=O)[C@H](Cc2c[nH]c3ccccc23)NC(=O)[C@H](CN)NC1=O [compound 147] (cyclo(L[Dap]W[Dab][Orn][dDab][Dab]W[Dab][Tle]AS[dP]P))")
0
>>> readout_value("CC(C)C[C@@H]1NC(=O)[C@@H]2CCCN2C(=O)[C@H]2CCCN2C(=O)[C@H](CO)NC(=O)[C@H](CO)NC(=O)[C@H](C(C)(C)C)NC(=O)[C@H](CCN)NC(=O)[C@H](Cc2c[nH]c3ccccc23)NC(=O)[C@H](CCN)NC(=O)[C@@H](CCN)NC(=O)[C@H](CCCN)NC(=O)[C@H](CCN)NC(=O)[C@H](Cc2ccc(O)cc2)NC(=O)[C@H](CO)NC1=O [compound 117] (cyclo(LSY[Dab][Orn][dDab][Dab]W[Dab][Tle]SS[dP]P))")
3

###

Test system: human red blood cells (hRBC)
Experiment: Hemolysis of human red blood cells
Type: cell-based
Conditions: red cells of human, 1 h, 100
Experimental: Lyophilized peptides were weighed on a Microbalance (Mettler MT5) and dissolved in sterile water to a final concentration of 1 mg/ml. Stock solutions were kept at +4° C., light protected. The peptides were tested for their hemolytic activity against human red blood cells (hRBC). […] A value of 0% and 100% cell lyses, respectively, was determined by incubation of hRBC in the presence of PBS containing 0.001% acetic acid and 2.5% Triton X-100 in H2O, respectively. […]
*1 amine or outer side, *2 acyl side, *3 side chain or, on linkers, in order; H or OH if unused. Where a SMILES comes first, the peptide text is derived from it. [ ]: non-standard residue; d: D form. X2 = O=C([C@H](CCNCc1ccccn1)N[*:1])[*:2]; Cha = N[C@@H](CC1CCCCC1)C(=O)O; Chg = N[C@H](C(=O)O)C1CCCCC1; Tle = CC(C)(C)[C@H](N)C(=O)O; dDab = NCC[C@@H](N)C(=O)O; Orn = NCCC[C@H](N)C(=O)O; Dab = NCC[C@H](N)C(=O)O
Let's look at some molecules and their measured Hemolysis at 100 μg/ml.
readout kind: Hemolysis at 100 μg/ml (%)

>>> readout_value("C[C@@H]1NC(=O)[C@H](C2CCCCC2)NC(=O)[C@H](CCN)NC(=O)[C@H](Cc2c[nH]c3ccccc23)NC(=O)[C@H](CCN)NC(=O)[C@@H](CCN)NC(=O)[C@H](CCCN)NC(=O)[C@H](CCN)NC(=O)[C@H](C(C)(C)C)NC(=O)[C@H](CO)NC(=O)[C@H](Cc2ccc(O)cc2)NC(=O)[C@@H]2CCCN2C(=O)[C@H]2CCCN2C(=O)[C@H](CO)NC1=O [compound 69] (cyclo(YS[Tle][Dab][Orn][dDab][Dab]W[Dab][Chg]AS[dP]P))")
7
>>> readout_value("C[C@@H]1NC(=O)[C@H](C(C)(C)C)NC(=O)[C@H](CCN)NC(=O)[C@H](Cc2c[nH]c3ccccc23)NC(=O)[C@H](CCN)NC(=O)[C@@H](CCN)NC(=O)[C@H](CCCN)NC(=O)[C@H](CCN)NC(=O)[C@H](CC2CCCCC2)NC(=O)[C@H](CCNCc2ccccn2)NC(=O)[C@H](Cc2c[nH]c3ccccc23)NC(=O)[C@@H]2CCCN2C(=O)[C@H]2CCCN2C(=O)[C@H](CO)NC1=O [compound 12] (cyclo(W[X2][Cha][Dab][Orn][dDab][Dab]W[Dab][Tle]AS[dP]P))")
0

###

System: human red blood cells (hRBC)
Assay: Hemolysis of human red blood cells
Format: cell-based
Settings: red cells of human, 1 h, 100
Where a SMILES comes first, the peptide text is derived from it. [ ]: non-standard residue; d: D form. Tle = CC(C)(C)[C@H](N)C(=O)O; dDab = NCC[C@@H](N)C(=O)O; Orn = NCCC[C@H](N)C(=O)O; Dab = NCC[C@H](N)C(=O)O; Dap = NC[C@H](N)C(=O)O
readout kind: Hemolysis at 100 μg/ml (%)

>>> readout_value("C[C@@H]1NC(=O)[C@H](C(C)(C)C)NC(=O)[C@H](CCN)NC(=O)[C@H](Cc2c[nH]c3ccccc23)NC(=O)[C@H](CCN)NC(=O)[C@@H](CCN)NC(=O)[C@H](CCCN)NC(=O)[C@H](CCN)NC(=O)[C@H](Cc2ccc(O)cc2)NC(=O)[C@H](CN)NC(=O)[C@H](Cc2ccccc2)NC(=O)[C@@H]2CCCN2C(=O)[C@H]2CCCN2C(=O)[C@H](CO)NC1=O [compound 160] (cyclo(F[Dap]Y[Dab][Orn][dDab][Dab]W[Dab][Tle]AS[dP]P))")
1
>>> readout_value("CC(C)C[C@@H]1NC(=O)[C@@H]2CCCN2C(=O)[C@H]2CCCN2C(=O)[C@H](CO)NC(=O)[C@H](CC(N)=O)NC(=O)[C@H](C(C)(C)C)NC(=O)[C@H](CCN)NC(=O)[C@H](Cc2c[nH]c3ccccc23)NC(=O)[C@H](CCN)NC(=O)[C@@H](CCN)NC(=O)[C@H](CCCN)NC(=O)[C@H](CCN)NC(=O)[C@H](Cc2ccc(O)cc2)NC(=O)[C@H](CC(=O)O)NC1=O [compound 123] (cyclo(LDY[Dab][Orn][dDab][Dab]W[Dab][Tle]NS[dP]P))")
0

###

System: human red blood cells (hRBC)
Test: Hemolysis of human red blood cells
Type: cell-based
Conditions: red cells of human, 1 h, 100
Where a SMILES comes first, the peptide text is derived from it. [ ]: non-standard residue; d: D form. Cha = N[C@@H](CC1CCCCC1)C(=O)O; Tle = CC(C)(C)[C@H](N)C(=O)O; dDab = NCC[C@@H](N)C(=O)O; Orn = NCCC[C@H](N)C(=O)O; Dab = NCC[C@H](N)C(=O)O; Dap = NC[C@H](N)C(=O)O
Let's look at some compounds and their measured Hemolysis at 100 μg/ml.
readout kind: Hemolysis at 100 μg/ml

>>> readout_value("C[C@@H]1NC(=O)[C@H](C(C)(C)C)NC(=O)[C@H](CCN)NC(=O)[C@H](Cc2c[nH]c3ccccc23)NC(=O)[C@H](CCN)NC(=O)[C@@H](CCN)NC(=O)[C@H](CCCN)NC(=O)[C@H](CCN)NC(=O)[C@H](Cc2ccc(O)cc2)NC(=O)[C@H](CO)NC(=O)[C@H]([C@@H](C)O)NC(=O)[C@@H]2CCCN2C(=O)[C@H]2CCCN2C(=O)[C@H](Cc2ccc(O)cc2)NC1=O [compound 158] (cyclo(TSY[Dab][Orn][dDab][Dab]W[Dab][Tle]AY[dP]P))")
"1%"
>>> readout_value("CC(C)C[C@@H]1NC(=O)[C@@H]2CCCN2C(=O)[C@H]2CCCN2C(=O)[C@H](CO)NC(=O)[C@H](C)NC(=O)[C@H](C(C)C)NC(=O)[C@H](CCN)NC(=O)[C@H](Cc2c[nH]c3ccccc23)NC(=O)[C@H](CCN)NC(=O)[C@@H](CCN)NC(=O)[C@H](CCCN)NC(=O)[C@H](CCN)NC(=O)[C@H](CC2CCCCC2)NC(=O)[C@H](CO)NC1=O [compound 140] (cyclo(LS[Cha][Dab][Orn][dDab][Dab]W[Dab]VAS[dP]P))")
"2%"
>>> readout_value("CC(C)C[C@@H]1NC(=O)[C@@H]2CCCN2C(=O)[C@H]2CCCN2C(=O)[C@H](CO)NC(=O)[C@H](C)NC(=O)[C@H](C(C)(C)C)NC(=O)[C@H](CCN)NC(=O)[C@H](Cc2c[nH]c3ccccc23)NC(=O)[C@H](CCN)NC(=O)[C@@H](CCN)NC(=O)[C@H](CN)NC(=O)[C@H](CCN)NC(=O)[C@H](Cc2ccc(O)cc2)NC(=O)[C@H](CO)NC1=O [compound 95] (cyclo(LSY[Dab][Dap][dDab][Dab]W[Dab][Tle]AS[dP]P))")
"1%"

Recorded values, source patent US9938322B2.
